B1: BBSome complex member BBS2 (Homo sapiens), Q9BXC9 (parent)
chain: MLLPVFTLKLRHKISPRMVAIGRYDGTHPCLAAATQTGKVFIHNPHTRNQHVSASRVFQSPLESDVSLLSINQAVSCLTAGVLNPELGYDALLVGTQTNLLAYDVYNNSDLFYREVADGANAIVLGTLGDISSPLAIIGGNCALQGFNHEGSDLFWTVTGDNVNSLALCDFDGDGKKELLVGSEDFDIRVFKEDEIVAEMTETEIVTSLCPMYGSRFGYALSNGTVGVYDKTSRYWRIKSKNHAMSIHAFDLNSDGVNELITGWSNGKVDARSDRTGEVIFKDNFSSAIAGVVEGDYRMDGHIQLICCSVDGEIRGYLPGTAEMRGNLMDTSAEQDLIRELSQKKQNLLLELRNYEENAKAELASPLNEADGHRGIIPANTRLHTTLSVSLGNETQTAHTELRISTSNDTIIRAVLIFAEGIFTGESHVVHPSIHNLSSSICIPIVPPKDVPVDLHLKAFVGYRSSTQFHVFESTRQLPRFSMYALTSLDPASEPISYVNFTIAERAQRVVVWLGQNFLLPEDTHIQNAPFQVCFTSLRNGGHLHIKIKLSGEITINTDDIDLAGDIIQSMASFFAIEDLQVEADFPVYFEELRKVLVKVDEYHSVHQKLSADMADHSNLIRSLLVGAEDARLMRDMKTMKSRYMELYDLNRDLLNGYKIRCNNHTELLGNLKAVNQAIQRAGRLRVGKPKNQVITACRDAIRSNNINTLFKIMRVGTASS
partner: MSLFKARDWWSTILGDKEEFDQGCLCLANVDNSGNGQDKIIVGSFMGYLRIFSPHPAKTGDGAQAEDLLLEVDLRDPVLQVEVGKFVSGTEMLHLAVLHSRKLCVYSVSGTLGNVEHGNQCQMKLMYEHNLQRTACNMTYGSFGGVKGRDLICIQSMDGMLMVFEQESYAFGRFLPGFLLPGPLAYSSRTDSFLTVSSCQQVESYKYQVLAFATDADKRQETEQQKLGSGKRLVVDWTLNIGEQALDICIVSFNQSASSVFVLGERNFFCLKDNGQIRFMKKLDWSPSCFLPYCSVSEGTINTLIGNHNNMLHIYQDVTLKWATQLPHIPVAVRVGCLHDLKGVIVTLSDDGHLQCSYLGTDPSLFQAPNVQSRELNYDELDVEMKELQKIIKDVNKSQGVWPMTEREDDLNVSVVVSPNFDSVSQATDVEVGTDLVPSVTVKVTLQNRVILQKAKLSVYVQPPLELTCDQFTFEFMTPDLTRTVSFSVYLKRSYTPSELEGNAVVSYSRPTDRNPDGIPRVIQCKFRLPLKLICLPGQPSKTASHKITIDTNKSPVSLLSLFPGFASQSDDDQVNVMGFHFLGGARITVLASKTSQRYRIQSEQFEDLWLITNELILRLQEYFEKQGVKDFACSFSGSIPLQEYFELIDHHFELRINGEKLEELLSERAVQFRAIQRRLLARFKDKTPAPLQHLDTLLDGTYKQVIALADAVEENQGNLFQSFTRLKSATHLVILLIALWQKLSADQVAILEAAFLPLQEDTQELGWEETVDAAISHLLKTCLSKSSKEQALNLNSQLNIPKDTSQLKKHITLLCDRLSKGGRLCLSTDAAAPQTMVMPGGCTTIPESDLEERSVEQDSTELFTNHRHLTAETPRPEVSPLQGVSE

variants of: B1; settings: with pthb1_human BBS9, Q3SYG4
assay-readout: effect of a mutation on the interaction

# example entries with known answers
S427E    with no effect
E667A    with no effect
D562E    with no effect
L520A    with no effect
V606K    with no effect

Please give the documented effect of a mutation on the interaction of "I417E"
with no effect

Please give the documented effect of a mutation on the interaction of "S537A"
with no effect

Please give the documented effect of a mutation on the interaction of "H607K"
with no effect

Please give the documented effect of a mutation on the interaction of "L383E"
with no effect
